# shrunken log2 fold change values compiled below
- Tested on: Escherichia coli TOP10;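 further: peptides expressed intracellularly from a pBAD plasmid library in pooled LB shake-flask culture, induced with 0.3% L-arabinose, DNA abundance read by NGS, three biological replicates, DESeq2 with apeglm shrinkage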
- testDescription: shrunken log2 fold change of peptide-encoding DNA abundance (4.5 h post-induction vs induction); higher = less antimicrobial activity (less host growth inhibition)
- conditions: time post-induction: 4.5 h; library: site-saturation at positions 5, 18, 19, 20
quantityName: shrunken log2 fold change

1) RRIRRRPPRLPRPRPRPFKQPRP	-0.182
2) RRIRNRPPRLPRPRPRPEFDPRP	0.0248
3) RRIRHRPPRLPRPRPRPMIWPRP	-0.00298
4) RRIRCRPPRLPRPRPRPEKRPRP	-0.123
5) RRIRERPPRLPRPRPRPRYKPRP	-0.0357
6) RRIRFRPPRLPRPRPRPMMKPRP	-0.0975
7) RRIRARPPRLPRPRPRPGHPPRP	0.543
8) RRIRDRPPRLPRPRPRPNMPPRP	-0.497
9) RRIRIRPPRLPRPRPRPQNQPRP	-1.03
10) RRIRCRPPRLPRPRPRPTNQPRP	-0.427
11) RRIRLRPPRLPRPRPRPYSRPRP	0.0264
12) RRIRDRPPRLPRPRPRPEFEPRP	0.824
13) RRIRYRPPRLPRPRPRPLRMPRP	0.0288
14) RRIRFRPPRLPRPRPRPTGGPRP	0.259
15) RRIRNRPPRLPRPRPRPVCHPRP	-0.169
